Origin of measurements: paper PMC10586439

test system: MDA-MB-231 human breast carcinoma cell line; experiment: MTT cytotoxicity assay against MDA-MB-231 breast carcinoma cell line; format: cell-based; conditions: MDA-MB-231, 24 h, read-out: IC50 value (μM) MDA-MB-231
quantity_measured: IC50 (µM)
The reply should be a number in µM, with the unit left off.

Which IC50 is reported for this compound? COC(=O)/C(=C/c1ccc(Cl)cc1)NC(=O)c1cc(OC)c(OC)c(OC)c1
4.03

Which IC50 is reported for this compound? CCCOC(=O)/C(=C/c1ccc(Cl)cc1)NC(=O)c1ccc(OC)c(OC)c1
14.3

Which IC50 is reported for this compound? COc1cc(C(=O)N/C(=C\c2ccc(Cl)cc2)C(=O)O)cc(OC)c1OC
3.24

---

Would you kindly list inhibition at 25 µM for each of these compounds?
molecular target: β-tubulin (Homo sapiens, UniProt P07437+P68363); assay: β-Tubulin polymerization inhibition; format: biochemical; conditions: read-out: β-tubulin polymerization inhibition percentage
Sequence (P07437 whole entry): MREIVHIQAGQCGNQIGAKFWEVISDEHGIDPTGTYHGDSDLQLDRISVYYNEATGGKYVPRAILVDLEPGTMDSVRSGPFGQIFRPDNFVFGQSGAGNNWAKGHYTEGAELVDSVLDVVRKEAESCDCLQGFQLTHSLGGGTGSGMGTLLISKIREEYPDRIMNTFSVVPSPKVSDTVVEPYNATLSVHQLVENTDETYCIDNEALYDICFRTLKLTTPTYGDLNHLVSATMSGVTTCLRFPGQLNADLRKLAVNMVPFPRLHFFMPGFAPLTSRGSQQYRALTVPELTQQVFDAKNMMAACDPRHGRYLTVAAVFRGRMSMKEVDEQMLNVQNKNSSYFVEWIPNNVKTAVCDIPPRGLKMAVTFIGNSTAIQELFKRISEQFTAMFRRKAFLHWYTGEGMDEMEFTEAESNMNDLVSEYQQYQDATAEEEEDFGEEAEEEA
Sequence (P68363 whole entry): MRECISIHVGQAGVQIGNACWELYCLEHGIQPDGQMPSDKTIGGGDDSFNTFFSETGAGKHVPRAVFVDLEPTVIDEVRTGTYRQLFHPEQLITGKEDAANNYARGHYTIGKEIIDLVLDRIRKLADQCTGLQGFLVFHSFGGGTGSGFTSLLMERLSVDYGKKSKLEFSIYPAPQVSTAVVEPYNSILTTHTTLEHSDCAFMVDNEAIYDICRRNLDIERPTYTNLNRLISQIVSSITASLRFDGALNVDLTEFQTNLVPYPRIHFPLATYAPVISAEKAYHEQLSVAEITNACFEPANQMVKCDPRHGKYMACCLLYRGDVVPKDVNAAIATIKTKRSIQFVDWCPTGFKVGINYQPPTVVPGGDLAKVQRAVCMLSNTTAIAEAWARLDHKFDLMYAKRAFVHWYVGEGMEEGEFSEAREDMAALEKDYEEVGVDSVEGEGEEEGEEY
The reply should be a number in %, with the unit left off.

Query for β-tubulin (Homo sapiens, UniProt P07437+P68363): what inhibition at 25 µM does the record show for COc1cc(C(=O)N/C(=C\c2ccc(Cl)cc2)C(=O)O)cc(OC)c1OC ?
80.1

Query for β-tubulin (Homo sapiens, UniProt P07437+P68363): what inhibition at 25 µM does the record show for COC(=O)/C(=C/c1ccc(Cl)cc1)NC(=O)c1ccc(OC)c(OC)c1 ?
57.1

Query for β-tubulin (Homo sapiens, UniProt P07437+P68363): what inhibition at 25 µM does the record show for COC(=O)/C(=C/c1ccc(Cl)cc1)NC(=O)c1cc(OC)c(OC)c(OC)c1 ?
77.8

Query for β-tubulin (Homo sapiens, UniProt P07437+P68363): what inhibition at 25 µM does the record show for COc1ccc(/C=C\c2cc(OC)c(OC)c(OC)c2)cc1O [CA-4, combretastatin A-4, reference compound] ?
89.8

---

test system: MDA-MB-231 human breast carcinoma cell line; assay: MTT cytotoxicity assay against MDA-MB-231 breast carcinoma cell line; type: cell-based; conditions: MDA-MB-231, read-out: IC50 against MDA-MB-231 cells
quantity_measured: IC50 (µM)
The reply should be a number in µM, with the unit left off.

Which IC50 is reported for this compound? CCCCOC(=O)/C(=C/c1ccc(Cl)cc1)NC(=O)c1ccc(OC)c(OC)c1
45.8

Which IC50 is reported for this compound? COC(=O)/C(=C/c1ccc(Cl)cc1)NC(=O)c1cc(OC)c(OC)c(OC)c1
4.06

---

Would you kindly list IC50 for each of these compounds?
tested on: MDA-MB-231 human breast carcinoma cell line; experiment: MTT cytotoxicity assay against MDA-MB-231 breast carcinoma cell line; assay type: cell-based; details: MDA-MB-231, 24 h, read-out: IC50 value (μM) MDA-MB-231
The reply should be a number in µM, with the unit left off.

Which IC50 is reported for this compound? CCOC(=O)/C(=C/c1ccc(Cl)cc1)NC(=O)c1ccc(OC)c(OC)c1 [5b]
15.8

Which IC50 is reported for this compound? CCCCOC(=O)/C(=C/c1ccc(Cl)cc1)NC(=O)c1cc(OC)c(OC)c(OC)c1 [5i]
28.1

Which IC50 is reported for this compound? COc1cc(C(=O)N/C(=C\c2ccc(Cl)cc2)C(=O)OC(C)C)cc(OC)c1OC [5h]
25.2

Which IC50 is reported for this compound? COC(=O)/C(=C/c1ccc(Cl)cc1)NC(=O)c1ccc(OC)c(OC)c1 [5a]
4.84

Which IC50 is reported for this compound? CCCCOC(=O)/C(=C/c1ccc(Cl)cc1)NC(=O)c1ccc(OC)c(OC)c1 [5d]
45.9

Which IC50 is reported for this compound? COc1ccc(/C=C\c2cc(OC)c(OC)c(OC)c2)cc1O [CA-4, combretastatin A-4, reference compound]
1.27

Which IC50 is reported for this compound? CCCOC(=O)/C(=C/c1ccc(Cl)cc1)NC(=O)c1cc(OC)c(OC)c(OC)c1 [5g]
23.2

Which IC50 is reported for this compound? COc1ccc(C(=O)N/C(=C\c2ccc(Cl)cc2)C(=O)O)cc1OC [4a]
8.24

Which IC50 is reported for this compound? CCOC(=O)/C(=C/c1ccc(Cl)cc1)NC(=O)c1cc(OC)c(OC)c(OC)c1 [5f]
11.6
